System: NCI/ADR-RES ovarian
Assay procedure: NCI-60 one-dose screen, 48 h (100 = growth as untreated, 0 = no growth, -100 = all killed)
Study conditions: 10 µM unless noted
Compounds without any hit were thinned out: in the full panel of roughly 83,000, 20% have a hit. Calls of active or inactive are those of the source. How the source made its calls: active means growth percent below 10; inactive means the rest.
Reported growth values for a set of molecules

Known growth results, listed for orientation:
{"Molecule": "O=C1/C(=C/c2cccc(Br)c2)COc2ccc(O)cc21", "growth": "47.6% (inactive)"}
{"Molecule": "Cc1ccc(OCCOCCOCCOCCOCCOc2ccc(C)n(O)c2=S)c(=S)n1O", "growth": "1.54% (active)"}
{"Molecule": "CCSc1ccnc(N)n1", "growth": "109% (inactive)"}
{"Molecule": "Cn1c(=O)[nH]c(=O)c2nc3c(nc21)-c1ccccc1C3=O", "growth": "95.2% (inactive)"}

Continue with the next molecule.
Qu. Tell me measured growth for `O=c1c2ccccc2n(C[C@H]2CO2)c2ccccc12` please.
Ans. -14.3% (active)
